# Test system: K562
# protocol: Antiproliferative activity against human K562 cells at 10 uM after 72 hrs by MTT assay
# Type: functional, cell-based
Active and inactive are the calls of the source. The rule behind the calls is not given here.
result.type: Activity

smi | result.type | observed.result
CCOC(=O)Cn1ccc2cc(OCCN3CCC(C)(C)c4ccccc43)ccc21 | Activity | inactive
Cn1ccc2cc(OCCN3CCC(C)(C)c4ccccc43)ccc21 | Activity | inactive
CC1(C)CCN(CCOc2ccc3[nH]ccc3c2)c2ccc(-c3ccccn3)cc21 | Activity | inactive
CC1(C)CCN(CCOc2ccc3[nH]ccc3c2)c2ccc(C(=O)C3CCCCC3)cc21 | Activity | inactive
CC1(C)CCN(CCOc2ccc3[nH]ccc3c2)c2ccc(-c3cccc([N+](=O)[O-])c3)cc21 | Activity | inactive

---

The reader will find reported EC50 values listed item by item below.
# Test system: KU812 cell line
# protocol: Antiproliferative activity against human KU812 cells after 48 hrs by MTT assay
# Type: functional, cell-based
# study.conditions: KU812, 48 h

smi | test.system | unit.descriptor | EC50
CC1(C)CCN(CCOc2ccc3[nH]ccc3c2)c2ccc(Br)cc21 | KU812 cell line | µM | 7.59
CC1(C)CCN(CCOc2ccc3c(ccn3CC(=O)O)c2)c2ccc(C(=O)C3CCCCC3)cc21 | KU812 cell line | µM | 197
CC1(C)CCN(CCOc2ccc3[nH]ccc3c2)c2ccccc21 | KU812 cell line | µM | 14.6
CC1(C)CCN(CCOc2ccc3[nH]ccc3c2)c2ccc(-c3ccc(Cl)nc3)cc21 | KU812 cell line | µM | 5.41
CC1(C)CCN(CCOc2ccc3[nH]ccc3c2)c2ccc(-c3ccncc3)cc21 | KU812 cell line | µM | 9.38

# credit: ChEMBL document CHEMBL4011645
